test system: clinical strains of S. aureus; experiment: MIC, microdilution, clinical strains; format: cell-based; settings: Staphylococcus aureus strain 3, Muller Hinton broth-cation adjusted, 0.02% BSA, 0.2% acetic acid
Where a SMILES comes first, the peptide text is derived from it. [ ]: non-standard residue; d: D form.
Rule: met for Minimum inhibitory concentration not less than 8, not met for anything less.

molecule	studyTarget	assignedCategory
CC(C)C[C@@H](NC(=O)[C@H](N)CCCNC(=N)N)C(=O)N[C@H](CCCCN)C(=O)N[C@H](CCCNC(=N)N)C(=O)N[C@H](Cc1c[nH]c2ccccc12)C(=O)N[C@H](CCCNC(=N)N)C(=O)N[C@H](CC(C)C)C(=O)N[C@H](Cc1ccccc1)C(=O)N[C@H](CCCNC(=N)N)C(=O)N[C@H](CCCCN)C(=O)N[C@H](CCCNC(=N)N)C(=O)O [Chain306D] (H-[dR][dL][dK][dR][dW][dR][dL][dF][dR][dK][dR]-OH)	clinical strains of S. aureus	met

hey, is Minimum inhibitory concentration for this one >= 8? CC[C@@H](C)[C@@H](NC(=O)[C@@H](CC(C)C)NC(=O)[C@@H](CCCNC(=N)N)NC(=O)[C@H](N)CCCNC(=N)N)C(=O)N[C@H](Cc1c[nH]c2ccccc12)C(=O)N[C@H](CCCNC(=N)N)C(=O)N[C@H](CCCNC(=N)N)C(=O)N[C@H](Cc1ccccc1)C(=O)N[C@H](CCCCN)C(=O)N[C@H](Cc1c[nH]c2ccccc12)C(=O)N[C@H](CC(C)C)C(=O)N[C@H](CCCNC(=N)N)C(=O)O [Chain204D] (H-[dR][dR][dL][dI][dW][dR][dR][dF][dK][dW][dL][dR]-OH)
not met

hey, is Minimum inhibitory concentration for this one >= 8? CC(C)C[C@@H](NC(=O)[C@H](N)CCCCN)C(=O)N[C@H](CCCCN)C(=O)N[C@H](Cc1c[nH]c2ccccc12)C(=O)N[C@H](Cc1ccccc1)C(=O)N[C@H](Cc1c[nH]c2ccccc12)C(=O)N[C@H](CC(C)C)C(=O)N[C@H](Cc1ccccc1)C(=O)N[C@H](CCCCN)C(=O)N[C@H](CCCCN)C(=O)N[C@H](CCCNC(=N)N)C(=O)O [Chain311D] (H-[dK][dL][dK][dW][dF][dW][dL][dF][dK][dK][dR]-OH)
not met

hey, is Minimum inhibitory concentration for this one >= 8? CC[C@@H](C)[C@@H](NC(=O)[C@@H](Cc1c[nH]c2ccccc12)NC(=O)[C@H](N)CCCCN)C(=O)N[C@@H](C(=O)N[C@H](Cc1c[nH]c2ccccc12)C(=O)N[C@H](CCCNC(=N)N)C(=O)N[C@H](Cc1c[nH]c2ccccc12)C(=O)N[C@H](CCCNC(=N)N)C(=O)N[C@H](Cc1ccccc1)C(=O)N[C@H](CCCCN)C(=O)N[C@H](CCCNC(=N)N)C(=O)O)C(C)C [Chain201D] (H-[dK][dW][dI][dV][dW][dR][dW][dR][dF][dK][dR]-OH)
not met

hey, is Minimum inhibitory concentration for this one >= 8? CC(C)C[C@@H](NC(=O)[C@H](N)CCCNC(=N)N)C(=O)N[C@H](CCCCN)C(=O)N[C@H](Cc1c[nH]c2ccccc12)C(=O)N[C@H](Cc1ccccc1)C(=O)N[C@H](CC(C)C)C(=O)N[C@H](CC(C)C)C(=O)N[C@H](Cc1ccccc1)C(=O)N[C@H](CCCNC(=N)N)C(=O)N[C@H](CCCCN)C(=O)N[C@H](CCCNC(=N)N)C(=O)O [Chain308D] (H-[dR][dL][dK][dW][dF][dL][dL][dF][dR][dK][dR]-OH)
not met

hey, is Minimum inhibitory concentration for this one >= 8? CC[C@@H](C)[C@@H](N)C(=O)N[C@H](Cc1c[nH]c2ccccc12)C(=O)N[C@H](CCCCN)C(=O)N[C@H](CCCNC(=N)N)C(=O)N[C@H](Cc1ccccc1)C(=O)N[C@H](CCCNC(=N)N)C(=O)N[C@H](CC(C)C)C(=O)N[C@H](Cc1ccccc1)C(=O)N[C@H](CCCCN)C(=O)N[C@H](CCCCN)C(=O)N[C@H](Cc1c[nH]c2ccccc12)C(=O)O [Chain304D] (H-[dI][dW][dK][dR][dF][dR][dL][dF][dK][dK][dW]-OH)
met
